test details: Solubility of glycerol-containing formulations (post vortexing, 30 min and overnight at 18° C.)
Format: physicochemical
test settings: glycerol-containing formulation, 18 °C, aqueous with cosolvent or surfactant or cyclodextrin, compound 2 mg/mL; 50% glycerol; overnight incubation at 18° C.; read-out: Solubility of glycerol-containing formulations after overnight incubation at 18° C., 50%
result type: solubility

compound	solubility
CCN1/C(=C/C=C/c2oc3ccccc3[n+]2CC)Oc2ccccc21 [JAC-R1, 3′,3′-Diethyloxacarbocyanine iodide]	< 2000 µg/mL

## Input Tell us which solubility value is on record for CCN1/C(=C/C(C)=C/c2sc3ccccc3[n+]2CC)Sc2ccccc21
## Output < 2000 µg/mL

---

test details: Solubility of BSA-containing formulations (post vortexing, 30 min and overnight at 18° C.)
Format: physicochemical
test settings: BSA-containing formulation, aqueous with cosolvent or surfactant or cyclodextrin, compound 2 mg/mL; BSA 80 mg/mL; post vortexing; read-out: Solubility of BSA-containing formulations post vortexing, 80 mg/mL
For each of the compounds below, state its solubility at 30 s.

compound	recorded result
CCN1/C(=C/C(C)=C/c2sc3ccccc3[n+]2CC)Sc2ccccc21	< 2000 µg/mL

Moving on to another compound below.
## Input Tell us which solubility at 30 s value is on record for CCN1/C(=C/C=C/c2oc3ccccc3[n+]2CC)Oc2ccccc21 [JAC-R1, 3′,3′-Diethyloxacarbocyanine iodide]
## Output < 2000 µg/mL

---

test details: Solubility of BSA-containing formulations (post vortexing, 30 min and overnight at 18° C.)
Assay type: physicochemical
test settings: BSA-containing formulation, 18 °C, aqueous with cosolvent or surfactant or cyclodextrin, compound 2 mg/mL; BSA 80 mg/mL; after 30 minutes incubation at 18° C.; read-out: Solubility of BSA-containing formulations after 30 min incubation at 18° C., 80 mg/mL
For each of the compounds below, state its solubility at 30 min.

Solved entries:
compound	solubility at 30 min
CCN1/C(=C/C(C)=C/c2sc3ccccc3[n+]2CC)Sc2ccccc21 [JAC-B2.5]	< 2000 µg/mL
CCN1/C(=C/C=C/c2oc3ccccc3[n+]2CC)Oc2ccccc21 [JAC-R1, 3′,3′-Diethyloxacarbocyanine iodide]	< 2000 µg/mL

Moving on to another compound below.
## Input Tell us which solubility at 30 min value is on record for CCN1/C(=C/C=C/c2sc3ccccc3[n+]2CC)Sc2ccccc21 [JAC-B1, 3′,3′-Diethylthiacarbocyanine iodide]
## Output > 2000 µg/mL

---

test details: Solubility of sodium deoxycholate-containing formulations (post vortexing, 30 min and overnight at 18° C.)
Assay type: physicochemical
test settings: sodium deoxycholate-containing formulation, aqueous with cosolvent or surfactant or cyclodextrin; compound 2 mg/mL; sodium deoxycholate 12.5 mg/mL; after 30 minutes incubation at 18° C.
For each of the molecules below, state its solubility at 30 min.

molecule	solubility at 30 min
CCN1/C(=C/C=C/c2sc3ccccc3[n+]2CC)Sc2ccccc21 [JAC-B1, 3′,3′-Diethylthiacarbocyanine iodide]	< 2000 µg/mL

## Input Tell us which solubility at 30 min value is on record for CCN1/C(=C/C=C/c2oc3ccccc3[n+]2CC)Oc2ccccc21 [JAC-R1, 3′,3′-Diethyloxacarbocyanine iodide]
## Output < 2000 µg/mL

---

For each of the molecules below, state its solubility at 30 s.
test details: Solubility of sodium deoxycholate-containing formulations (post vortexing, 30 min and overnight at 18° C.)
Assay type: physicochemical
test settings: sodium deoxycholate-containing formulation, aqueous with cosolvent or surfactant or cyclodextrin, compound 2 mg/mL; sodium deoxycholate 12.5 mg/mL; post vortexing; read-out: Solubility of sodium deoxycholate-containing formulations post vortexing, 12.5 mg/mL

molecule	solubility at 30 s
CCN1/C(=C/C=C/c2sc3ccccc3[n+]2CC)Sc2ccccc21 [JAC-B1, 3′,3′-Diethylthiacarbocyanine iodide]	< 2000 µg/mL

Moving on to another molecule below.
## Input Tell us which solubility at 30 s value is on record for CCN1/C(=C/C=C/c2oc3ccccc3[n+]2CC)Oc2ccccc21 [JAC-R1, 3′,3′-Diethyloxacarbocyanine iodide]
## Output < 2000 µg/mL
